- test-protocol: NCI Yeast Anticancer Drug Screen. Data for the rad18 strain (AID 177)
- condition-summary: S. cerevisiae rad18 mutant growth inhibition; at 11.0 µM; hits give high values
The panel holds about 79,000 compounds, 15% with a hit somewhere; the sample as a whole holds those more often.
Values of growth inhibition greater than or equal to 20% map to Met; values below map to Not met.

CCN(CC)C(=S)N/N=C(/C)c1cccc(/C(C)=N\NC(=S)N(CC)CC)n1	Met
Cc1nn(-c2cc(Cl)ccc2[N+](=O)[O-])c(C)c1Cl	Not met

Query: Check the entry "BrCC[P+](c1ccccc1)(c1ccccc1)c1ccccc1" : does growth inhibition equal or exceed 20%?
Response: Met

Query: Check the entry "Cc1c(C(=O)C(=O)c2ccccc2)c(C)c(C(=O)C(=O)c2ccccc2)c(C)c1C(=O)C(=O)c1ccccc1" : does growth inhibition equal or exceed 20%?
Response: Not met

Query: Check the entry CCCCCCCCCCC1CCC(=O)O1 (stereo not given) : does growth inhibition equal or exceed 20%?
Response: Not met

Query: Check the entry "COc1ccc(Br)c(C(=O)Sc2nnnn2-c2cccc(Cl)c2)c1" : does growth inhibition equal or exceed 20%?
Response: Not met

---

# growth inhibition annotations
- test-protocol: NCI Yeast Anticancer Drug Screen. Data for the bub3 strain (AID 167)
- condition-summary: S. cerevisiae bub3 mutant strain, at 5.0 µM (retest, dose inferred, filed as 0.5), hits give high values
- Description: Growth inhibition of yeast strains with defined genetic alterations is measured as a screen for potential anti-cancer activity. Selected strains with alterations in DNA damage repair or cell cycle control were exposed to compounds and growth inhibition was measured relative to vehicle treated controls. The strain used in this assay is bub3
The panel holds about 79,000 compounds, 15% with a hit somewhere; the sample as a whole holds those more often.
# value in %; strip the unit string

Worked cases, answers included:
O=C(NNc1ccnc2cc(Cl)ccc12)/C(=C\c1ccccc1Cl)NC(=O)c1ccccc1	5
CC(C)/C(Cl)=N\OC(=O)Nc1ccc(F)cc1	52
CC(/C=C/c1ccc2c(c1)OCO2)[N+](=O)[O-] (stereo not given)	46

Query: Would you mind telling me what growth inhibition value was observed for "Oc1ccc(NCn2c(=S)sc3ccccc32)cc1" ?
Response: 32

Query: Would you mind telling me what growth inhibition value was observed for "O=C(O)c1ccccc1-c1ccccc1C(=O)Nc1ccc2c(c1)Cc1ccccc1-2" ?
Response: -24

Query: Would you mind telling me what growth inhibition value was observed for "O=C1C(=O)c2ccccc2C=C1[N+](=O)[O-]" ?
Response: -14

Query: Would you mind telling me what growth inhibition value was observed for "CN(CCc1ccccn1)c1ccc2c(c1)Cc1ccccc1-2" ?
Response: -12

Query: Would you mind telling me what growth inhibition value was observed for "O=C1C(Nc2ccccc2)=C(Oc2ccccc2)C(=O)c2ccccc21" ?
Response: 16

---

# growth inhibition annotations
- test-protocol: NCI Yeast Anticancer Drug Screen. Data for the mec2-1 strain (AID 157)
- condition-summary: S. cerevisiae mec2-1 strain, at 5.0 µM (retest, dose inferred, filed as 0.5), hits give high values
Compounds without any hit were thinned out: in the full panel of roughly 79,000, 15% have a hit. The source made the active and inactive calls. Cut-off read from the data, not from the text of the source: active = growth inhibition above about 70%; inactive = the rest.

Worked cases, answers included:
C=C(CN(C)C)C(=O)c1cc(C)ccc1C	5% (inactive)
COC(=O)C1=C(C)NC(C)=C(C(=O)OCCCN2CCC(c3ccccc3)(c3ccccc3)CC2)C1c1cccc([N+](=O)[O-])c1 (stereo not given)	9% (inactive)
CN=C(N)N/N=C/c1ccc2c(c1)Cc1ccccc1-2	6% (inactive)
FC(F)(F)c1nc2nc(Cl)c(Cl)nc2n1CCCN1CCOCC1	3% (inactive)

Query: Would you mind telling me what growth inhibition value was observed for "Cc1nn(-c2cc(Cl)ccc2[N+](=O)[O-])c(C)c1Cl" ?
Response: -7% (inactive)

Query: Would you mind telling me what growth inhibition value was observed for "CCOC(=O)C1=C(C(=O)c2ccccc2)C(c2ccccc2[N+](=O)[O-])C(C(=O)c2ccccc2)=C(C(=O)OCC)N1" ?
Response: -4% (inactive)

Query: Would you mind telling me what growth inhibition value was observed for "CN(C)CCn1c2c3ccccc3ccc2c2oc(=O)c3ccccc3c21" ?
Response: -12% (inactive)

Query: Would you mind telling me what growth inhibition value was observed for "Cc1cc(O)cc(O)c1N=Nc1ccc([N+](=O)[O-])cc1" ?
Response: 54% (inactive)

Query: Would you mind telling me what growth inhibition value was observed for "CC(=O)Nc1ccc2c(c1)C(=Nc1ccc(C(=O)O)cc1)c1ccccc1-2" ?
Response: -3% (inactive)

Query: Would you mind telling me what growth inhibition value was observed for "C[S+](C)C1(c2ccccc2)C(=O)c2ccccc2C1=O" ?
Response: -9% (inactive)

---

- test-protocol: NCI Yeast Anticancer Drug Screen. Data for the mec2-1 strain (AID 157)
- condition-summary: S. cerevisiae mec2-1 strain, at 11.0 µM
Compounds without any hit were thinned out: in the full panel of roughly 79,000, 15% have a hit. The source made the active and inactive calls. No stated cut-off is given here; in the data, active means growth inhibition above about 70%; inactive means the rest.
Please reply with one of these outcomes: active, inactive

COc1cc2c(cc1[N+](=O)[O-])C(=O)C(Br)(Br)CCC2	active
CC1(Cl)CC(O)C2(CC1Br)C1(C)OC1C1OC1(Br)C2(C)C (centres undefined)	inactive
CSC(=S)Nc1cccc(C)n1	inactive
COC1=CC(=O)C2C(C1=O)C(c1ccc(Cl)cc1)[C@@H]2C (some centres undefined)	active
Fc1ccc(NC(=S)SCc2ccc(Cl)c(Cl)c2)cc1F	inactive
O=C(NCCCNCCCNC(=O)c1cc(-c2ccccc2)nc2ccccc12)c1cc(-c2ccccc2)nc2ccccc12	inactive
CNC(=O)OCc1c(COC(=O)NC)c(-c2ccc(Cl)c(Cl)c2)n2c1CCC2	inactive
Cc1ccc2ccc3cccc4ccc1c2c34	inactive
CC(=O)Nc1ccc(/C=C(\C#N)c2ccc(C)cc2)cc1	inactive
CC1C(NNc2ccccc2)Oc2cc3c(cc2C1c1ccccc1O)OCO3 (centres undefined)	active

Read the next record carefully.
Query: Tell me the recorded outcome of this test for "Oc1ccc2ccccc2c1C(c1ccc(Cl)cc1)c1c(O)ccc2ccccc12" .
Response: inactive

---

# growth inhibition annotations
- test-protocol: NCI Yeast Anticancer Drug Screen. Data for the cln2 rad14 strain (AID 165);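 further: 0% = growth equal to vehicle treated cultures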
- condition-summary: S. cerevisiae cln2 rad14 strain, at 50.0 µM, hits give high values
- Procedure: Growth inhibition of yeast strains with defined genetic alterations is measured as a screen for potential anti-cancer activity. Selected strains with alterations in DNA damage repair or cell cycle control were exposed to compounds and growth inhibition was measured relative to vehicle treated controls. The strain used in this assay is cln2 rad14
The panel holds about 79,000 compounds, 15% with a hit somewhere; the sample as a whole holds those more often.
# value in %; strip the unit string

Query: Would you mind telling me what growth inhibition value was observed for "CN1Cc2ccccc2/C=C\c2ccccc21" ?
Response: -30.4

Query: Would you mind telling me what growth inhibition value was observed for "Cc1c(Cl)ccc2c1S(=O)(=O)c1cccc(Cl)c1-2" ?
Response: 0.75

Query: Would you mind telling me what growth inhibition value was observed for "N#C/C(=C\c1cccc(OCc2ccccc2)c1)c1ccc([N+](=O)[O-])cc1" ?
Response: 0.05

---

- test-protocol: NCI Yeast Anticancer Drug Screen. Data for the mlh1 rad18 strain (AID 175)
- condition-summary: S. cerevisiae mlh1 rad18 strain growth inhibition; at 50.0 µM
This is part of a sample that, as a whole, favours compounds with a hit. Of some 79,000 tested, about 15% had one in any assay. The source made the active and inactive calls. Cut-off read from the data, not from the text of the source: active = growth inhibition above about 70%; inactive = the rest.
Please reply with one of these outcomes: active, inactive

S=C(N/N=C(/c1ccccc1)c1ccccn1)N1CCCCCC1	active
COc1cc(/C=C2\CCc3ccccc3C2=O)cc(OC)c1OC	inactive
CC(=O)OCCOCNC(=S)N/N=C(\C)c1cnccn1	inactive
C/C(=N/NC(=S)N1CCCCCC1)c1cccc(/C(C)=N\NC(=S)N2CCCCCC2)n1	active

Query: Tell me the recorded outcome of this test for "CCOC(=O)C1=C(C(=O)c2ccccc2)C(c2ccccc2[N+](=O)[O-])C(C(=O)c2ccccc2)=C(C(=O)OCC)N1" .
Response: inactive

Query: Tell me the recorded outcome of this test for "O=[N+]([O-])c1ccc2nc3ccccc3cc2c1" .
Response: active

Query: Tell me the recorded outcome of this test for "Oc1cccc2c(Cl)ccnc12" .
Response: active

Query: Tell me the recorded outcome of this test for "CCOC(=O)c1cc([N+](=O)[O-])cc([N+](=O)[O-])c1Sc1ncnc2nc[nH]c12" .
Response: active

Query: Tell me the recorded outcome of this test for COc1cc(C2c3cc4c(cc3OC(Nc3ccccc3)C2C)OCO4)cc(OC)c1O (stereo not drawn) .
Response: active

---

- test-protocol: NCI Yeast Anticancer Drug Screen. Data for the rad14 strain (AID 159);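 further: 0% = growth of vehicle-treated control cultures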
- condition-summary: S. cerevisiae rad14 strain growth inhibition; at 100.0 µM; hits give high values
The panel holds about 79,000 compounds, 15% with a hit somewhere; the sample as a whole holds those more often.
assay-readout: growth inhibition (%)
# value in %; strip the unit string

Worked cases, answers included:
CC[C@@]1(O)C(=O)OCc2c1cc1n(c2=O)Cc2cc3c(N)cccc3nc2-1	-33
O=[N+]([O-])c1cc(CCl)ccc1CCl	97
COc1cc(C(=O)/C=C/c2ccccc2O)ccc1O	98

Query: Would you mind telling me what growth inhibition value was observed for "CC(C)C1=CC2=C[C@H](O)[C@H]3C(C)(C)CCC[C@]3(C)C2=C(O)C1=O" ?
Response: 95

Query: Would you mind telling me what growth inhibition value was observed for c1ccc2c(c1)-c1nc3ccccc3cc1C2N1CCOCC1 (stereo not given) ?
Response: 21

Query: Would you mind telling me what growth inhibition value was observed for COc1ccccc1C(=O)OCC1CCCN2CCCCC12 (stereo not given) ?
Response: 99

Query: Would you mind telling me what growth inhibition value was observed for "CC(C)/C(Cl)=N\OC(=O)Nc1ccccc1F" ?
Response: 26
